tested on: normal cell lines; test: 72-h MTT assay, mean of normal cell lines; type: cell-based; conditions: Homo sapiens, read-out: 72-h MTT IC50
ATTRIBUTE MEASURED: IC50

These solved cases illustrate the format of a correct answer.
CC[C@H](Nc1nc(NCc2cccnc2)c2ncn(C(C)C)c2n1)[C@@H](C)O
> 10 µM
CC[C@H](Nc1nc(NCc2cccnc2)c2ncn(C(C)C)c2n1)C(C)(C)O
> 10 µM

// next item, IC50 requested
Item under review: CC[C@@H](Nc1nc(NCc2cccnc2)c2ncn(C(C)C)c2n1)[C@H](C)O . Reported IC50?
> 10 µM

* * *

Each entry below carries its reported IC50.
molecular target: CDK1/cyclin B (Homo sapiens (Human)); test: Kinase assay CDK1/cyclin B; conditions: read-out: Kinase inhibition CDK1/cyclin B IC50
Sequence (P06493 whole entry): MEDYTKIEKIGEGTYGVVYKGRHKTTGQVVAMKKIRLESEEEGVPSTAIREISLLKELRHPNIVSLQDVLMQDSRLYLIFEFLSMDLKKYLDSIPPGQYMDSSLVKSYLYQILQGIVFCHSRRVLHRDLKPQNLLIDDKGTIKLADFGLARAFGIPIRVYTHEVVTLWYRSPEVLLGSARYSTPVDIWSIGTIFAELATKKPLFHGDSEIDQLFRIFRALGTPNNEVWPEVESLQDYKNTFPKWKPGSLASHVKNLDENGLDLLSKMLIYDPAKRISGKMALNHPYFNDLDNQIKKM
Sequence (P14635 whole entry partner): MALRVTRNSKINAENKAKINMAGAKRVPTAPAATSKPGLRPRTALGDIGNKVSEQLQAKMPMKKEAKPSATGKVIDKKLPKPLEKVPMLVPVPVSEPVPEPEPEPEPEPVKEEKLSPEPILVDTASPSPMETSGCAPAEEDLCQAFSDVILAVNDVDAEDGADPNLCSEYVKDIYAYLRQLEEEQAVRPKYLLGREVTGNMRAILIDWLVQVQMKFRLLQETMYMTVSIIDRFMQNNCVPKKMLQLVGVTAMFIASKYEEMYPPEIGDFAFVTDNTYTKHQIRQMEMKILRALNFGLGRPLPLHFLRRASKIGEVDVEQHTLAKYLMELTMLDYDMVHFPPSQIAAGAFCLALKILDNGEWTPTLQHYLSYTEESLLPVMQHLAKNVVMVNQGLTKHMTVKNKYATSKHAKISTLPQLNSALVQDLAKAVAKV
Could you give me the number in µM? Just the number is fine.

CC[C@H](Nc1nc(NCc2cccnc2)c2ncn(C(C)C)c2n1)[C@@H](C)O
2.2
CC[C@H](Nc1nc(NCc2cccnc2)c2ncn(C(C)C)c2n1)C(O)C(C)(C)C (mixture of isomers)
21
CC[C@@H](Nc1nc(NCc2cccnc2)c2ncn(C(C)C)c2n1)[C@H](C)O
4.9
CCC(O)[C@@H](CC)Nc1nc(NCc2cccnc2)c2ncn(C(C)C)c2n1 (mixture of isomers)
12
CC[C@@H](Nc1nc(NCc2cccnc2)c2ncn(C(C)C)c2n1)C(C)(C)O
6.2
CC[C@H](Nc1nc(NCc2cccnc2)c2ncn(C(C)C)c2n1)C(O)C(C)C (mixture of isomers)
22
CC[C@@H](Nc1nc(NCc2cccnc2)c2ncn(C(C)C)c2n1)C(O)C(C)C (mixture of isomers)
20
CCC(O)[C@H](CC)Nc1nc(NCc2cccnc2)c2ncn(C(C)C)c2n1 (mixture of isomers)
13
CC[C@@H](Nc1nc(NCc2cccnc2)c2ncn(C(C)C)c2n1)C(O)C(C)(C)C (mixture of isomers)
23

// next item, IC50 requested
Item under review: CC[C@H](Nc1nc(NCc2cccnc2)c2ncn(C(C)C)c2n1)C(C)(C)O . Reported IC50?
4.4

* * *

target: CDK7/cyclin H (Homo sapiens (Human)); experiment: Kinase assay CDK7/cyclin H; conditions: read-out: Kinase inhibition CDK7/cyclin H IC50
Sequence (P50613 whole entry): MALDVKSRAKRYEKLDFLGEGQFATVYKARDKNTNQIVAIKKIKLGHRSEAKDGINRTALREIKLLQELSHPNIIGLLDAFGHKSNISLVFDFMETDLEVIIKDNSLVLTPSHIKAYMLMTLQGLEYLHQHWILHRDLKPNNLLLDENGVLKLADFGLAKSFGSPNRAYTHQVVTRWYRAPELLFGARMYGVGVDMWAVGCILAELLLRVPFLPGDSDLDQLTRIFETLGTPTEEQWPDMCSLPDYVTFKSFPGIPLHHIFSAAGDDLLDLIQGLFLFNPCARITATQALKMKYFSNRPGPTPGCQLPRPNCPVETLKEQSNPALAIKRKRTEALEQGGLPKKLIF
Sequence (P51946 whole entry partner): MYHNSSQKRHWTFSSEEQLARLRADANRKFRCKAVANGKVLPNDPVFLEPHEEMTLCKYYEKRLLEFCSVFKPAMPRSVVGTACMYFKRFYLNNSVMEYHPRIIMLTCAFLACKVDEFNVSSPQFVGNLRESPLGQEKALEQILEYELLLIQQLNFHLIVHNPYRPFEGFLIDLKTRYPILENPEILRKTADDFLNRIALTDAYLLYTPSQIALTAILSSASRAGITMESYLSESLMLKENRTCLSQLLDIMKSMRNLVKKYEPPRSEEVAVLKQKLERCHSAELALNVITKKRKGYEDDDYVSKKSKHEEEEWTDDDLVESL
ATTRIBUTE MEASURED: IC50 (nM)
Could you give me the number in nM? Just the number is fine.

These solved cases illustrate the format of a correct answer.
CC[C@@H](Nc1nc(NCc2cccnc2)c2ncn(C(C)C)c2n1)C(C)(C)O
3100
CC[C@@H](Nc1nc(NCc2cccnc2)c2ncn(C(C)C)c2n1)C(O)C(C)C (mixture of isomers)
2200
CCC(O)[C@H](CC)Nc1nc(NCc2cccnc2)c2ncn(C(C)C)c2n1 (mixture of isomers)
1500
CC[C@@H](Nc1nc(NCc2cccnc2)c2ncn(C(C)C)c2n1)C(O)C(C)(C)C (mixture of isomers)
1600
CCC(O)[C@@H](CC)Nc1nc(NCc2cccnc2)c2ncn(C(C)C)c2n1 (mixture of isomers)
1100
CC[C@H](Nc1nc(NCc2cccnc2)c2ncn(C(C)C)c2n1)C(C)(C)O
2500
CC[C@H](Nc1nc(NCc2cccnc2)c2ncn(C(C)C)c2n1)C(O)C(C)(C)C (mixture of isomers)
3500

// next item, IC50 requested
Item under review: CC[C@H](Nc1nc(NCc2cccnc2)c2ncn(C(C)C)c2n1)C(O)C(C)C (mixture of isomers) . Reported IC50?
3500

* * *

molecular target: CDK2/cyclin E (Homo sapiens (Human), UniProt P24941); test: Kinase assay CDK2/cyclin E; settings: read-out: Kinase inhibition CDK2/cyclin E IC50
# note: boundary value 400 nM maps to 0.0; IC50 below it maps to 1.0

CC[C@H](Nc1nc(NCc2cccnc2)c2ncn(C(C)C)c2n1)C(C)(C)O
1.0
CC[C@@H](Nc1nc(NCc2cccnc2)c2ncn(C(C)C)c2n1)C(C)(C)O
1.0

A record lists CCC(O)[C@H](CC)Nc1nc(NCc2cccnc2)c2ncn(C(C)C)c2n1 (mixture of isomers) . Is its IC50 below 400 nM?
1.0

A record lists CC[C@H](Nc1nc(NCc2cccnc2)c2ncn(C(C)C)c2n1)C(O)C(C)C (mixture of isomers) . Is its IC50 below 400 nM?
0.0

A record lists CC[C@@H](Nc1nc(NCc2cccnc2)c2ncn(C(C)C)c2n1)C(O)C(C)(C)C (mixture of isomers) . Is its IC50 below 400 nM?
0.0

A record lists CCC(O)[C@@H](CC)Nc1nc(NCc2cccnc2)c2ncn(C(C)C)c2n1 (mixture of isomers) . Is its IC50 below 400 nM?
1.0

A record lists CC[C@@H](Nc1nc(NCc2cccnc2)c2ncn(C(C)C)c2n1)C(O)C(C)C (mixture of isomers) . Is its IC50 below 400 nM?
0.0

* * *

biological target: CDK4/cyclin D1 (Homo sapiens (Human), UniProt P11802); conditions: read-out: Kinase inhibition CDK4/cyclin D1 IC50
Sequence (P11802 whole entry): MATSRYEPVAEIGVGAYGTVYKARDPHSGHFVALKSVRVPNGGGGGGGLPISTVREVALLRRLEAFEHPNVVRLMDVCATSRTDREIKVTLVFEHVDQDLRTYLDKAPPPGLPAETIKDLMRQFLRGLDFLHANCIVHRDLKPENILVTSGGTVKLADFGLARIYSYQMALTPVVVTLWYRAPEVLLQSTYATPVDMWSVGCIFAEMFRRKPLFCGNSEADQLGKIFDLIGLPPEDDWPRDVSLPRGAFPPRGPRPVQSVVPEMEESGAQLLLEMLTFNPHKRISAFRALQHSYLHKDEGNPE
Sequence (P24385 whole entry partner): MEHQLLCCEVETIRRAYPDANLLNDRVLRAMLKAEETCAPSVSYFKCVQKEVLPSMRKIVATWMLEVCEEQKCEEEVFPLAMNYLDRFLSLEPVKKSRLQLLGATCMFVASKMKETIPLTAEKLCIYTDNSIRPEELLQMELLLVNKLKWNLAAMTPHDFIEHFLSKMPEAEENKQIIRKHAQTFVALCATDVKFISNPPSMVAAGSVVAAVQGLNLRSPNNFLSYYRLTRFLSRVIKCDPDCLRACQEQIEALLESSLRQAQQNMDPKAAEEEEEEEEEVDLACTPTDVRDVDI
# note: boundary value 20 µM maps to N; IC50 below it maps to Y

A record lists CC[C@@H](Nc1nc(NCc2cccnc2)c2ncn(C(C)C)c2n1)C(O)C(C)C (mixture of isomers) . Is its IC50 below 20 µM?
N

A record lists CC[C@H](Nc1nc(NCc2cccnc2)c2ncn(C(C)C)c2n1)C(C)(C)O . Is its IC50 below 20 µM?
Y

A record lists CC[C@@H](Nc1nc(NCc2cccnc2)c2ncn(C(C)C)c2n1)C(C)(C)O . Is its IC50 below 20 µM?
Y

A record lists CC[C@H](Nc1nc(NCc2cccnc2)c2ncn(C(C)C)c2n1)C(O)C(C)(C)C (mixture of isomers) . Is its IC50 below 20 µM?
Y

* * *

test system: K-562; experiment: 72-h MTT assay K-562; format: cell-based; conditions: Homo sapiens, K562, 72 h, read-out: 72-h MTT IC50
ATTRIBUTE MEASURED: IC50 (µM)
Could you give me the number in µM? Just the number is fine.

Item under review: CC[C@H](Nc1nc(NCc2cccnc2)c2ncn(C(C)C)c2n1)C(C)(C)O . Reported IC50?
8.4

* * *

Each entry below carries its reported pIC50.
molecular target: ERK-2 (Homo sapiens (Human), UniProt P28482); experiment: Kinase assay ERK-2; settings: read-out: Kinase inhibition ERK2 IC50
Sequence (P28482 whole entry, species assumed): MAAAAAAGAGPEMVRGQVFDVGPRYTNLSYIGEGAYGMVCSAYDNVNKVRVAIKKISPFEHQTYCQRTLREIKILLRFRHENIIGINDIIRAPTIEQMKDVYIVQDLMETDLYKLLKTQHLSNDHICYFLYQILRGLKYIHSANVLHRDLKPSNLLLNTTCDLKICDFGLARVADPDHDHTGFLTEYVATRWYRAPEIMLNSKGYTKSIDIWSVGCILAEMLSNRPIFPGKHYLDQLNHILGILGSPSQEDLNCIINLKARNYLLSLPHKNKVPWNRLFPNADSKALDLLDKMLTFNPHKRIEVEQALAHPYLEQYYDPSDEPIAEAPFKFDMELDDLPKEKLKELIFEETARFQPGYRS
Value format note: pIC50 is -log10 of concentration (mol/L); just state the number.

These solved cases illustrate the format of a correct answer.
CC[C@H](Nc1nc(NCc2cccnc2)c2ncn(C(C)C)c2n1)C(C)(C)O
4.46
CC[C@@H](Nc1nc(NCc2cccnc2)c2ncn(C(C)C)c2n1)C(O)C(C)(C)C (mixture of isomers)
4.29
CCC(O)[C@@H](CC)Nc1nc(NCc2cccnc2)c2ncn(C(C)C)c2n1 (mixture of isomers)
4.43

// next item, pIC50 requested
Item under review: CC[C@@H](Nc1nc(NCc2cccnc2)c2ncn(C(C)C)c2n1)[C@H](C)O . Reported pIC50?
4.64

* * *

system: CCRF-CEM; assay: 72-h MTT assay CCRF-CEM; type: cell-based; conditions: Homo sapiens, read-out: 72-h MTT IC50, acute lymphoblastic leukaemia
ATTRIBUTE MEASURED: IC50 (µM)
Could you give me the number in µM? Just the number is fine.

Item under review: CC[C@H](Nc1nc(NCc2cccnc2)c2ncn(C(C)C)c2n1)C(C)(C)O . Reported IC50?
3.7

* * *

target: CDK2/cyclin E (Homo sapiens (Human)); assay: Kinase assay CDK2/cyclin E; type: biochemical; settings: comparative in vitro efficacy
ATTRIBUTE MEASURED: A × B

These solved cases illustrate the format of a correct answer.
CC[C@H](Nc1nc(NCc2cccnc2)c2ncn(C(C)C)c2n1)C(O)C(C)(C)C (mixture of isomers)
0.4
CCC(O)[C@H](CC)Nc1nc(NCc2cccnc2)c2ncn(C(C)C)c2n1 (mixture of isomers)
2.1
CCC(O)[C@@H](CC)Nc1nc(NCc2cccnc2)c2ncn(C(C)C)c2n1 (mixture of isomers)
1.0

Field: A × B (CDK2/cyclin E (Homo sapiens (Human))). Entry: CC[C@@H](Nc1nc(NCc2cccnc2)c2ncn(C(C)C)c2n1)[C@H](C)O
3.1

Field: A × B (CDK2/cyclin E (Homo sapiens (Human))). Entry: CC[C@H](Nc1nc(NCc2cccnc2)c2ncn(C(C)C)c2n1)C(C)(C)O
3.2

Field: A × B (CDK2/cyclin E (Homo sapiens (Human))). Entry: CC[C@@H](Nc1nc(NCc2cccnc2)c2ncn(C(C)C)c2n1)C(C)(C)O
1.3

Field: A × B (CDK2/cyclin E (Homo sapiens (Human))). Entry: CC[C@H](Nc1nc(NCc2cccnc2)c2ncn(C(C)C)c2n1)[C@@H](C)O
7.5

* * *

details: 10 μM
ATTRIBUTE MEASURED: % Drug after 30 min. microsomal incubation (%)
Could you give me the number in %? Just the number is fine.

These solved cases illustrate the format of a correct answer.
CC[C@@H](Nc1nc(NCc2cccnc2)c2ncn(C(C)C)c2n1)[C@H](C)O
90
CCC(O)[C@H](CC)Nc1nc(NCc2cccnc2)c2ncn(C(C)C)c2n1 (mixture of isomers)
73
CC[C@H](Nc1nc(NCc2cccnc2)c2ncn(C(C)C)c2n1)[C@@H](C)O
67
CC[C@@H](Nc1nc(NCc2cccnc2)c2ncn(C(C)C)c2n1)C(C)(C)O
84
CC[C@H](Nc1nc(NCc2cccnc2)c2ncn(C(C)C)c2n1)C(C)(C)O
78
CC[C@H](Nc1nc(NCc2cccnc2)c2ncn(C(C)C)c2n1)C(O)C(C)(C)C (mixture of isomers)
50

Item under review: CCC(O)[C@@H](CC)Nc1nc(NCc2cccnc2)c2ncn(C(C)C)c2n1 (mixture of isomers) . Reported % Drug after 30 min. microsomal incubation?
70
